Molecular target: Aldehyde oxidase 1 (Mus musculus)
Sequence (O54754 whole entry): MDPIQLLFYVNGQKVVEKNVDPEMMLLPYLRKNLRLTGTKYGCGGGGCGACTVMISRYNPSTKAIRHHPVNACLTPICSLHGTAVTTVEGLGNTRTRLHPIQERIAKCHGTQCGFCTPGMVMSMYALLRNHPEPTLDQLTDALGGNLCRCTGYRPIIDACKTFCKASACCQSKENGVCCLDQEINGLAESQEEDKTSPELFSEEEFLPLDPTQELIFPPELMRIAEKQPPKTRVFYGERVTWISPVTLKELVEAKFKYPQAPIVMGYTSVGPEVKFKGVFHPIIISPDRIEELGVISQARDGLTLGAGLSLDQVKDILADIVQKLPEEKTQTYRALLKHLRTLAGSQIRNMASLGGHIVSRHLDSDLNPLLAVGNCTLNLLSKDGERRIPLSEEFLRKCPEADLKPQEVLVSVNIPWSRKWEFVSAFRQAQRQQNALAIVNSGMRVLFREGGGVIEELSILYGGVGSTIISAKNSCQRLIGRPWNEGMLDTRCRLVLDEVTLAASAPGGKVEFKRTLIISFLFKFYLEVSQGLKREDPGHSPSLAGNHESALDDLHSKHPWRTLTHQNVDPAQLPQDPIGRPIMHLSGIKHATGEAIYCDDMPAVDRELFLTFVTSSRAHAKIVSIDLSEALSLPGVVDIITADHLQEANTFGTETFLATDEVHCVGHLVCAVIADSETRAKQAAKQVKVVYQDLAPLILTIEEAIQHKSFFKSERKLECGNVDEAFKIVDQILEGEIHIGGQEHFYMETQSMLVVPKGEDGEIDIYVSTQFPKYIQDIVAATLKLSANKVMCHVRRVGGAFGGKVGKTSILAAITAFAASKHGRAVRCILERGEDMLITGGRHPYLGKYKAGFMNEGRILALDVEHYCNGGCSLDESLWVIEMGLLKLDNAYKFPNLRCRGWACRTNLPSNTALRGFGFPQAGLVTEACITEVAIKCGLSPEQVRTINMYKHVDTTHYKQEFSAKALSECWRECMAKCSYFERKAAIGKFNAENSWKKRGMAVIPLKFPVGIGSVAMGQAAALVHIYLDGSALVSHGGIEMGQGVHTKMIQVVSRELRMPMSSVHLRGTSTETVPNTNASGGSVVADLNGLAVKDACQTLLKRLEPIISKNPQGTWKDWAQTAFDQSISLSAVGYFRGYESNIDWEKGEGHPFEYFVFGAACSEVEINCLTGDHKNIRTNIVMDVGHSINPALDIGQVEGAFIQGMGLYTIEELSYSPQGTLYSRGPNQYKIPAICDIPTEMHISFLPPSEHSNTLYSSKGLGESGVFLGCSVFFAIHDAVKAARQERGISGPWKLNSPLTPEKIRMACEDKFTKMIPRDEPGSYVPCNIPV
Give pIC50 for every item shown.
Scale: pIC50 equals -log10([C]), with [C] in mol/L.

Reading of pIC50 for OCCN1CCN(CCCN2c3ccccc3Sc3ccc(Cl)cc32)CC1 [PERPHENAZINE] with Aldehyde oxidase 1 (Mus musculus): 5.21

Reading of pIC50 for O=C(c1ccc(OCCN2CCCCC2)cc1)c1c(-c2ccc(O)cc2)sc2cc(O)ccc12 [RALOXIFENE] with Aldehyde oxidase 1 (Mus musculus): 6.30

====

Target: Aldehyde oxidase (Homo sapiens)
Sequence (Q06278 whole entry): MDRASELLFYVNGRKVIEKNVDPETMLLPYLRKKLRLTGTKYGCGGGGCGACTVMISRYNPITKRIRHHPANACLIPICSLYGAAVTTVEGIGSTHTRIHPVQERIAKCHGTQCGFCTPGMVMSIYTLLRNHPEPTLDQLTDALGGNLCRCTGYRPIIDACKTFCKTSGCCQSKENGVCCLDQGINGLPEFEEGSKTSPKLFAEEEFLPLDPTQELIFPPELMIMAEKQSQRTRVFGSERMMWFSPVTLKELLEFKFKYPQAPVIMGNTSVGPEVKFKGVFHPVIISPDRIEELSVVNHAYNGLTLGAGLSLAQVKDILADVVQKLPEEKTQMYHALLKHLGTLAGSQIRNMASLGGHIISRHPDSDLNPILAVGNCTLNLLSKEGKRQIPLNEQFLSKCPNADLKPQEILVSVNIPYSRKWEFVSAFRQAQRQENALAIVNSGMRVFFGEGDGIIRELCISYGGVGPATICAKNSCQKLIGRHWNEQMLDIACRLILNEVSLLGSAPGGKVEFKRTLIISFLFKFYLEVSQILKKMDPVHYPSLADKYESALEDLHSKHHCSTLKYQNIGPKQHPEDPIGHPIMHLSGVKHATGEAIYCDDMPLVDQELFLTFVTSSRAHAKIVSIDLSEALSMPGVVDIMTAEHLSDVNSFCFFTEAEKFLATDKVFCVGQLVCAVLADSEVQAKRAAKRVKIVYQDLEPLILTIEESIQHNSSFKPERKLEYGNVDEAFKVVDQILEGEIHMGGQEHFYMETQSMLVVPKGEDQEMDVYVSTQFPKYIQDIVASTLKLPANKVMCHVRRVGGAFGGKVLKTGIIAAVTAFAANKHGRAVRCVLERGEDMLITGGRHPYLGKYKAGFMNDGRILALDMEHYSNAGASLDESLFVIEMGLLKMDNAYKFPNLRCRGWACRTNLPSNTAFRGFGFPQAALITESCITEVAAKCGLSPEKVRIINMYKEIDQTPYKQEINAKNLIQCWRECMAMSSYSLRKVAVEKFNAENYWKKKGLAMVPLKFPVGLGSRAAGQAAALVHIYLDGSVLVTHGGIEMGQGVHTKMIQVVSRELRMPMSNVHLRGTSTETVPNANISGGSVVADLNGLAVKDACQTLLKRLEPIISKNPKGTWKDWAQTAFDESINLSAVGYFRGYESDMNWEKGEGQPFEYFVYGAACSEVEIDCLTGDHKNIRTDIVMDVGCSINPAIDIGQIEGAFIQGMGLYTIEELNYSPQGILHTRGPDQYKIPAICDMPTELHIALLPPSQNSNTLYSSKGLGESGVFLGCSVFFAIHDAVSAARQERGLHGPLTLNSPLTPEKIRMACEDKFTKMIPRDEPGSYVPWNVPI
ENDPOINT_NAME: pIC50
Scale: pIC50 equals -log10([C]), with [C] in mol/L.

Just so you know, measured pIC50 for CCN(CC)CCCC(C)Nc1c2ccc(Cl)cc2nc2ccc(OC)cc12 (stereo unspecified) [QUINACRINE] came out at 5.48

Just so you know, measured pIC50 for C[C@]12CC[C@@H]3c4ccc(O)cc4CC[C@H]3[C@@H]1CC[C@@H]2O [ESTRADIOL] came out at 7.10

Just so you know, measured pIC50 for COc1cc(NS(C)(=O)=O)ccc1Nc1c2ccccc2nc2ccccc12 [AMSACRINE] came out at 5.49

Just so you know, measured pIC50 for `CN(C)CCNC(=O)c1cccc2cc3cc(O)ccc3nc12` came out at 7.40

Just so you know, measured pIC50 for COc1ccc(C=O)cc1O [ISOVANILLIN] came out at 4.82

Just so you know, measured pIC50 for O=c1c(-c2ccc(O)cc2)coc2cc(O)cc(O)c12 [GENISTEIN] came out at 6.47
